PROTOCOL TEXT: Plasma methadone concentrations by liquid chromatography/triple quadrupole mass spectrometry (Example I)
CONDITIONS: dog, in vivo, Mean plasma methadone concentration, methadone 1 mg/kg PO 24 h after starting fluconazole 2.5 mg/kg PO q 12 h; 0.333 hr
MEASURE NAME: concentration at 0.333 h (ng/mL)
Report the figure in ng/mL without appending any unit label.

-- ask Item under review: CCC(=O)C(CC(C)N(C)C)(c1ccccc1)c1ccccc1 (racemic) . Reported concentration at 0.333 h?
-- reply 0.8

---

PROTOCOL TEXT: Plasma methadone concentrations by liquid chromatography/triple quadrupole mass spectrometry (Example I)
CONDITIONS: dog, in vivo, Mean plasma methadone concentration, methadone 1 mg/kg PO 24 h after starting fluconazole 5 mg/kg PO q 24 h; 0.667 hr
MEASURE NAME: concentration at 0.667 h (ng/mL)
The figure you give is taken to be in ng/mL; do not add the unit.

-- ask Please look up its concentration at 0.667 h: CCC(=O)C(CC(C)N(C)C)(c1ccccc1)c1ccccc1 (racemic)
-- reply 22.4

The origin of these recorded values is patent US11771662B2.
